TEST_SYSTEM: p101/p110γ protein (PI3Kγ) (Homo sapiens, UniProt P48736)
Construct: HA; made in house; host or cells: Spodoptera frugiperda (Sf9) cells, baculovirus coinfection
Sequence (P48736 whole entry, species assumed): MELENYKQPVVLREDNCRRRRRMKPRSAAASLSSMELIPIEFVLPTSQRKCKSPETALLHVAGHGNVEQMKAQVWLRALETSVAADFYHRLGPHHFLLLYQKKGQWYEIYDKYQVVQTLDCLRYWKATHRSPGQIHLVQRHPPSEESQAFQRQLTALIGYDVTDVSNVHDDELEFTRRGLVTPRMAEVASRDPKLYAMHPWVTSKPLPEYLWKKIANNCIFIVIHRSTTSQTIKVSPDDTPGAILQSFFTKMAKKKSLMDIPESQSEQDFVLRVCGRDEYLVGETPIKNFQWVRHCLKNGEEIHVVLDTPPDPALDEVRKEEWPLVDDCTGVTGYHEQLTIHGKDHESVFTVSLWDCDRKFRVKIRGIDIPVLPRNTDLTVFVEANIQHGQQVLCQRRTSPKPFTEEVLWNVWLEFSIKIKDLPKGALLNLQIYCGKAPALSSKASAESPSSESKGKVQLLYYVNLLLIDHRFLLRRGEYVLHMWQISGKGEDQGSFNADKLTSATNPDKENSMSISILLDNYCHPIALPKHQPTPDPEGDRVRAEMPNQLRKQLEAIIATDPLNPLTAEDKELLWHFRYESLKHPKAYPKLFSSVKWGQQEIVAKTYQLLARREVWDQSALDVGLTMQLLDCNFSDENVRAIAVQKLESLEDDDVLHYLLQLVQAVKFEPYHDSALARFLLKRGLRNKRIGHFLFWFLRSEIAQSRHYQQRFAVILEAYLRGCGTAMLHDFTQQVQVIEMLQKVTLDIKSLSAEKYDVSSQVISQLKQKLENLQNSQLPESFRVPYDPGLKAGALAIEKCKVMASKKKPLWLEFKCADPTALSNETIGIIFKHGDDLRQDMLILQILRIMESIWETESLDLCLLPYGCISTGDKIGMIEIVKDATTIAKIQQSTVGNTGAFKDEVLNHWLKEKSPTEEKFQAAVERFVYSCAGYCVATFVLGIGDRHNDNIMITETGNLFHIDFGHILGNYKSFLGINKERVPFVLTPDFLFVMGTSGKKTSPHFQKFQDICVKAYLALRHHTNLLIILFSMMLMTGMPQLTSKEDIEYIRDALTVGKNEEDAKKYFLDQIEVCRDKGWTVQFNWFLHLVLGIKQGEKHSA
Sequence (Q8WYR1 whole entry partner, species assumed): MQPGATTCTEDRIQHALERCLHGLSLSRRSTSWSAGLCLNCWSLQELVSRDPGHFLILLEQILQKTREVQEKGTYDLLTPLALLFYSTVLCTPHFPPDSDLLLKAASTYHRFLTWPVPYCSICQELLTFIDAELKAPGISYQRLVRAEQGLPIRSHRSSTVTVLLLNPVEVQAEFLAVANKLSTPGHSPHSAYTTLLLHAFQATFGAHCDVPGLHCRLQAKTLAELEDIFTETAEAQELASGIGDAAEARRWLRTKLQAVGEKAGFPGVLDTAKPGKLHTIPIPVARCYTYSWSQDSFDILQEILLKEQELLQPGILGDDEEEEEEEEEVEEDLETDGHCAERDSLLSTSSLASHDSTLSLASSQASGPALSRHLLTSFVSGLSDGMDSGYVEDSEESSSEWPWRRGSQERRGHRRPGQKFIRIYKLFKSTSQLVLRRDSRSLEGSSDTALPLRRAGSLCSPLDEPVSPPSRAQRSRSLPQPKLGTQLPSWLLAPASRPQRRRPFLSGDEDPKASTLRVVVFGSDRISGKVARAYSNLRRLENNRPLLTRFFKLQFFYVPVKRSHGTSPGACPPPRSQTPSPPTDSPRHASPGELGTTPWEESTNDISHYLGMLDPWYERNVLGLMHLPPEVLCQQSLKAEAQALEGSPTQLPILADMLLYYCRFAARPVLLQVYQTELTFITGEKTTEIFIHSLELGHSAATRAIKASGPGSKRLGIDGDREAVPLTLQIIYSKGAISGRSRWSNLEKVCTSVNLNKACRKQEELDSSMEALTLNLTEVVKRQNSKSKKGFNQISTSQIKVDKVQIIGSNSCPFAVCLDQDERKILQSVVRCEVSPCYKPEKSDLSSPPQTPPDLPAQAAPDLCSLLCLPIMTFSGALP
ASSAY_TEXT: PI3Kγ in vitro kinase assay
Type: biochemical
DETAILS: purified recombinant p101/p110γ with G protein β1/γ2 subunits, 20 μM ATP, 25 μM PIP2, 20 minutes at room temperature
I'd appreciate it if you could label each record using IC50 and these ranges: 1 = under 100 nM, 2 = from 100 nM up to 600 nM, 3 = 600 nM and over

Would you please look over these solved cases?
CCOc1ccc2sc(C(=O)Nc3nnn[nH]3)c(SC3CCCC3)c2c1 [Example 9] : 3
CCOc1ccc2sc(C(=O)Nc3nnn[nH]3)c(SC3CCCCC3)c2c1 [Example 10] : 3
CCOCc1cc2sc(C(=O)Nc3nnn[nH]3)c(SC3CCCCC3)c2cc1OC [Example 13] : 2
COc1cc2c(SC3CCCCC3)c(C(=O)Nc3nnn[nH]3)sc2cc1C [Example 11] : 1
COc1ccc2sc(C(=O)Nc3nnn[nH]3)c(SC3CCCCC3)c2c1 [Example 4] : 2

For COc1cc2sc(C(=O)Nc3nnn[nH]3)c(SCC3CCCCC3)c2cc1OC [Example 2] , which IC50 bin applies?
3

For COc1cc2sc(C(=O)Nc3nnn[nH]3)c(SC3CCCCC3)c2cc1OC [Example 6] , which IC50 bin applies?
2

For COc1cc2sc(C(=O)Nc3nnn[nH]3)c(SCC3CC3)c2cc1OC [Example 15] , which IC50 bin applies?
2

For COc1ccc2sc(C(=O)Nc3nnn[nH]3)c(SCC3CCCCC3)c2c1 [Example 1] , which IC50 bin applies?
1

For COc1cc2sc(C(=O)Nc3nnn[nH]3)c(SC3CCCC3)c2cc1C [Example 7] , which IC50 bin applies?
2

For COc1cc2c(SC3CCCCC3)c(C(=O)Nc3nnn[nH]3)sc2cc1COCc1ccccc1 [Example 14] , which IC50 bin applies?
3

For COCc1cc2sc(C(=O)Nc3nnn[nH]3)c(SC3CCCCC3)c2cc1OC [Example 12] , which IC50 bin applies?
2

For COc1ccc2sc(C(=O)Nc3nnn[nH]3)c(SC3CCCC3)c2c1 [Example 3] , which IC50 bin applies?
3

For COc1cc2sc(C(=O)Nc3nnn[nH]3)c(SC3CCCC3)c2cc1OC [Example 5] , which IC50 bin applies?
2

For COc1cc2sc(C(=O)Nc3nnn[nH]3)c(SC3CCCCC3)c2cc1C [Example 8] , which IC50 bin applies?
1
